- Experimental system: T1, human IL-11 (AAH12506.1, Pro22-Leu199) (human, UniProt P20809 22-199)
- T1 construct: The range Pro22-Leu199 counts on AAH12506.1; The Octet runs say only 'human IL-11'; also called hIL-11
- T1 chain: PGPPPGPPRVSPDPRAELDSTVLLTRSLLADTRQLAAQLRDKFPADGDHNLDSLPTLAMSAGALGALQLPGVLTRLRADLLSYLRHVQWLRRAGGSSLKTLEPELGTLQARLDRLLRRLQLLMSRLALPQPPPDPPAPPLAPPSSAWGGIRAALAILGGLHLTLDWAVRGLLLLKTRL
- Measurement protocol: BLI (Octet), antibody captured, human IL-11 in solution
Attribute measured: kon (M⁻¹ s⁻¹)
Report only the number, with the unit M⁻¹ s⁻¹ understood.

## Task Reported kon, binder hz8C8-VHm1-m1 + hz8C8-VLm7 (antibody, human IgG1, kappa, V domains shown, human IgG1 constant regions) VH: EVQLVESGGGLVQPGGSLRLSCAASGFTFSSYGMHWVRQAPGKGLEWVAYITPGSNTIYYADTVKGRFTISRDNAKNSLYLQMNSLRAEDTAVYYCAREYYSYDEGFAYWGQGTLVTVSS VL: EIVLTQSPATLSLSPGERATLSCSVSDLIPSQYLHWYQQKPGQAPRLLIYRTSNLASGIPARFSGSGSGTDFTLTISSLEPEDFAVYYCQQGVDVPFTFGQGTKLEIKR : ____
## Result 1.04e+06

## Task Also need hz8C8-VHm1 + hz8C8-VLm1 (antibody, human IgG1, kappa, V domains shown, human IgG1 constant regions) VH: EVQLVESGGGLVQPGGSLRLSCAASGFTFSSFGMHWVRQAPGKGLEWVAYITPGSNTIYYADTVKGRFTISRDNAKNSLYLQMNSLRAEDTAVYYCAREYYSYDEGFAYWGQGTLVTVSS VL: EIVLTQSPATLSLSPGERATLSCSVSSSIPSNYLHWYQQKPGQAPRLLIYRTSNLASGIPARFSGSGSGTDFTLTISSLEPEDFAVYYCQQGVDVPFTFGQGTKLEIKR , thanks.
## Result 705000

## Task Also need hz8C8-VHm1-m12 + hz8C8-VLm7-m2 (antibody, human IgG1, kappa, V domains shown, human IgG1 constant regions) VH: EVQLVESGGGLVQPGGSLRLSCAASGFTFSSFGMHWVRQAPGKGLEWVAYITPGSNTIYYADTVKGRFTISRDNAKNSLYLQMNSLRAEDTAVYYCAREYYSYDEGGAYWGQGTLVTVSS VL: EIVLTQSPATLSLSPGERATLSCSVSDLIPSQYLHWYQQKPGQAPRLLIYDASNLASGIPARFSGSGSGTDFTLTISSLEPEDFAVYYCQQGVDVPFTFGQGTKLEIKR , thanks.
## Result 175000

## Task Also need hz8C8-VHm1-m13 + hz8C8-VLm7-m2 (antibody, human IgG1, kappa, V domains shown, human IgG1 constant regions) VH: EVQLVESGGGLVQPGGSLRLSCAASGFTFSSFGMHWVRQAPGKGLEWVAYITPGSNTIYYADTVKGRFTISRDNAKNSLYLQMNSLRAEDTAVYYCAREYYSYDEGFASWGQGTLVTVSS VL: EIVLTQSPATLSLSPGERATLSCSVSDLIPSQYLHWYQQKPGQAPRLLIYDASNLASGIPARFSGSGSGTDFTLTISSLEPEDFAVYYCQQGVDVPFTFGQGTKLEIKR , thanks.
## Result 753000

## Task Also need hz8C8-VHm1 + hz8C8-VLm2 (antibody, human IgG1, kappa, V domains shown, human IgG1 constant regions) VH: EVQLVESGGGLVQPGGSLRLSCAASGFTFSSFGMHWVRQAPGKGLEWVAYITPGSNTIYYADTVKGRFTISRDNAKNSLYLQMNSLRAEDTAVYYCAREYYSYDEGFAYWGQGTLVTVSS VL: EIVLTQSPATLSLSPGERATLSCSVSSSISSKYLHWYQQKPGQAPRLLIYRTSNLASGIPARFSGSGSGTDFTLTISSLEPEDFAVYYCQQGVDVPFTFGQGTKLEIKR , thanks.
## Result 590000
